- assay system: Inadl_6, Q8NI35
- Sequence (Q8NI35 1058-1167): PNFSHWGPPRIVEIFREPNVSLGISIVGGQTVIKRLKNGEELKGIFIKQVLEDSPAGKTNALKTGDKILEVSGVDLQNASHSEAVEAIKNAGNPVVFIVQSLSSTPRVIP
- assay protocol: holdup assay
- Design: key: below the threshold = too weak to quantify, mostly under pKd 3.1 to 4
- test conditions: plain residues with an end cap or a label only (N-terminal biotin on a linker: ado-ado)
measured metric: pKd

>  <binder>
HYPASPDSWV [CTNND2, Q9UQB3]

>  <pKd>
4.37

$$$$
>  <binder>
THHRKIHTRV [ZNF599, Q96NL3]

>  <pKd>
below the threshold

$$$$
>  <binder>
PDSYHRRDFW [U2AF2, P26368]

>  <pKd>
below the threshold

$$$$
>  <binder>
RSPVATATSC [DUSP5, Q16690]

>  <pKd>
below the threshold

$$$$
>  <binder>
VKQYADVEGF [HNRNPK, P61978;P61978-2]

>  <pKd>
below the threshold

$$$$

As a next step, examine the binder that follows.
*Q* Item IKLETKKTKL [SLC15A2, Q16348] has what recorded pKd?
*A* below the threshold
